Measured melting point, listed per entry.

Known melting point results, listed for orientation:
Measured melting point, O=CN1CCN(c2ncc3c(=O)c(C(=O)ON4C(=O)CCC4=O)c[nH]c3n2)CC1 : > 300 °C

Measured melting point, CNC(=O)C(Cc1ccc(OC)cc1)NC(=O)C(C)(CC(C)C)c1cccc(C(F)(F)F)c1S (stereo not given) : 88 to 102 °C

Measured melting point, Oc1c2c(nn1-c1ccccn1)CCc1cc(Br)ccc1-2 : 164 to 165 °C

Measured melting point, CN(C)c1cc(Br)cc(Sc2ccc([N+](=O)[O-])cc2)c1 : 102 to 104 °C

Measured melting point, CSc1nccc(-c2ccc(NC(=O)c3cc(F)cc(N4CCOCC4)c3)c3ccccc23)n1 : 135 to 138 °C

Measured melting point, Cc1cc2c(cc1N(C)CC(C)C)N=C(c1cccc(-n3ncnc3CO)c1)CC(=O)N2 : 191 °C

Measured melting point, COn1c(C#N)c(Br)c(Br)c1-c1ccc(Cl)c(Cl)c1 : 145 to 150 °C

Measured melting point, COc1ccc2cc(-c3ccc(-n4nc(C)nc4C)c(Cl)c3)c(=O)oc2c1 : 219 °C

Next:
Measured melting point, Cn1ncc2c1-c1c(Oc3ccc(OCc4ccc(Cl)cc4)cc3)sc(C(N)=O)c1CC2 : 216 to 217 °C

Measured melting point, Cc1cc(C)c2cc(-c3ccccc3)c(=O)n(CCN(C)C)c2n1 : 135 to 137 °C

Measured melting point, CC(=O)N(C)C(=O)Oc1cccc2c1OC(C)(C)O2 : 76 to 77 °C

Measured melting point, Cc1[nH]c2ccccc2c1C(=O)CCN(C)C : 172 to 175 °C

Measured melting point, O=C(O)[C@H](Cc1ccc(C(F)(F)F)cc1)[C@@H](O)c1ccccc1 (racemic) : 138 to 139 °C

Measured melting point, CCOC(=O)C(C)(C)c1ccc2c(c1)Nc1ccccc1S2 : 96 to 99 °C

Measured melting point, COc1cc(-c2cnc3[nH]cc(C(=O)C(C)C)c3n2)cc(OC)c1OC : 189 to 190 °C

* * *

OBSERVED PROPERTY: melting point

Known melting point results, listed for orientation:
Measured melting point, CCOC(=O)C(C)(C)Oc1ccc(C#CC(=O)c2ccc(Cl)cc2)cc1 : 68 to 70 °C

Measured melting point, CCOC(=O)C(CC(=O)c1cccc(C(F)(F)F)c1)(NC(C)=O)C(=O)OCC : 91 to 92 °C

Measured melting point, c1ccc(CCCCNCCOc2cccc3[nH]ccc23)cc1 : 99 to 101 °C

Next:
Measured melting point, c1ccc(COc2ccc(Cc3nnc(Nc4ccc5c(c4)ncn5-c4ccccc4)c4ccccc34)cc2)cc1 : 229 to 231 °C

Measured melting point, Cn1cc(CN2C(=O)C3(COc4cc5c(cc43)OCCO5)c3ccccc32)ccc1=O (stereo not given) : 205 to 207 °C

* * *

Measured melting point, listed per entry.

Known melting point results, listed for orientation:
Measured melting point, OCc1[nH]c(=S)n(C2CCc3ccccc3C2)c1CO (configuration not stated) : 199 to 200 °C

Measured melting point, NS(=O)(=O)c1ccc(NC(=O)CCl)cc1C(F)(F)F : 185 to 190 °C

Measured melting point, O=S(=O)(O)CCCNc1cccc(O)c1 : > 250 °C

Measured melting point, CCN(CC)C(=O)NC1CC2c3cccc4[nH]cc(c34)CC2N(C)C1 (configuration not stated) : 171 to 173 °C

Measured melting point, CCOC(=O)/C=C/c1cc(O)ccc1Br : 96 to 98 °C

Measured melting point, O=c1c2cc(Cl)ccc2nc2n1CS(=O)(=O)N2 : > 300 °C

Measured melting point, c1ccc2c(c1)sc1nncn12 : 175 to 176 °C

Measured melting point, CCC(C)(C)OC(=O)NC(C)(Cc1c[nH]c2ccccc12)C(=O)NCCc1ccc(Cl)cc1 (configuration not stated) : 150 to 153 °C

Measured melting point, NS(=O)(=O)c1cc2[nH]c(C(F)F)nc2cc1Cl : 233 to 235 °C

Measured melting point, CCOC(=O)Cn1c(=S)c2ccccc2n(Cc2ccc(Cl)c(Cl)c2)c1=O : 128 to 129 °C

Next:
Measured melting point, C(=Cc1ccccc1)COc1ccc2c(c1)OCO2 : 83 °C

Measured melting point, COc1c(C)cnc(C#N)c1C : 59 to 61 °C

Measured melting point, CC(=O)Nc1cc2c(cc1[N+](=O)[O-])C(CC(C)C)C(=O)N2 (configuration not stated) : 192 to 197 °C

Measured melting point, Nc1cc(C(=O)O)cc(S(N)(=O)=O)c1Nc1ccc(Cl)cc1 : 273 to 274 °C

Measured melting point, O=[N+]([O-])c1ccc(C=Cc2ccc(N3CCC(O)CC3)cc2)cc1 : 248 to 250 °C

Measured melting point, CCc1nnc(Cc2c(Cl)cncc2Cl)c2ccc(OC)cc12 : 136 to 138 °C

Measured melting point, Nc1c(O)c2ccccc2oc1=O : 400 °C

* * *

OBSERVED PROPERTY: melting point

Measured melting point, Cn1nc(-c2ccccc2S(=O)(=O)Cl)oc1=O : 122 to 125 °C

* * *

Measured melting point, listed per entry.

Measured melting point, O=C(O)c1ccc2cnn(C3CCCC3)c2c1 : 172 to 175 °C

Measured melting point, OC1(CSc2ccc(-c3ccccc3)cc2)CN2CCC1CC2 (stereo unspecified) : 145 to 147 °C

Measured melting point, N[C@H]1CC[C@@H](N2CCNC2=O)CC1 : 121 to 123 °C

Measured melting point, COc1ccc(C2OC(=O)c3cc(OC)c(OC)c(OC)c32)cc1OC (stereo unspecified) : 141 to 142 °C

Measured melting point, CCCCCCCCC(Cc1cccnc1)(C(=O)O)S(=O)(=O)c1ccc(OC)cc1 (stereo unspecified) : 159 °C

Measured melting point, CCCC(=O)NCC1Cc2ccc(-c3ccc(=O)[nH]n3)cc2C1 (stereo unspecified) : 204 to 205 °C

Measured melting point, N#CC(CCC(=O)O)(CC(=O)O)c1ccc(Cl)c(Cl)c1 (stereo unspecified) : 152 °C

Measured melting point, Cc1nc(N2CCN(Cc3ccc(OC(F)(F)F)cc3)C2=O)sc1C(=O)NCCC1CC1 : 195 to 196 °C

Measured melting point, CCCn1c(COCC)nc2c(N)nc3ccc(OCC(=O)N4CCS(=O)(=O)CC4)cc3c21 : 223 to 225 °C

Measured melting point, COc1cc(C)nc(NC(=O)NS(=O)(=O)c2cccc(NC(=O)NC(C)(C)C)c2)n1 : 137 to 145 °C

Next:
Measured melting point, CCn1nc(-c2cccc(Cl)c2)c(C(C)=O)c(Nc2cccc3cnccc23)c1=O : 189 to 191 °C

* * *

OBSERVED PROPERTY: melting point

Known melting point results, listed for orientation:
Measured melting point, Cc1nc2ccc([N+](=O)[O-])cn2c(=O)c1CCCl : 170 °C

Measured melting point, N=C(N)c1ccc(C(=O)N[C@@H](Cc2ccc(O)cc2)C(=O)N2CCC(OCC(=O)O)CC2)cc1 : 88 to 90 °C

Measured melting point, CC(=O)n1nc(-c2c(C)cc(C)c([N+](=O)[O-])c2C)n2nc(C(C)(C)C)c(Cl)c12 : 188 to 191 °C

Next:
Measured melting point, COC(=O)C[C@@H]1Nc2ccc(NC(=O)OC(C)(C)C)cc2CNC1=O : 167 to 169 °C

Measured melting point, FC(F)(F)Oc1ccc(-c2ncc(Br)cn2)cc1 : 107 to 108 °C

Measured melting point, O=C(NCC1(c2ccccc2)CCCCC1)Nc1cccc(C(F)(F)F)c1 : 147 to 151 °C

Measured melting point, CCCCCCCCCC(=O)Nc1c2c(nc3ccccc13)CCCC2 : 123 to 126 °C

Measured melting point, COC(=O)c1ccc(-c2coc3ccc(-c4nnc(C)o4)cc23)c(Cl)c1 : 171 to 172 °C

Measured melting point, COCCNS(=O)(=O)c1ccc(Nc2nc(OCC3CCCCC3)c3nc[nH]c3n2)cc1 : 120 to 122 °C

Measured melting point, O=C(CCCCCCCCCCCCCCCO)OCOC(=O)CCCCCCCCCCCCCCCO : 96.2 °C

Measured melting point, CCN(C)c1cc(Br)cc(S(=O)(=O)c2ccc(N)cc2)c1 : 162 to 164 °C

Measured melting point, O=[N+]([O-])c1cccc(-c2nc(Nc3ccccc3)cc3cccnc23)c1 : 158 to 160 °C

Measured melting point, CON=C(C)c1ccc2c(c1)ncn2-c1cccc(-c2nccs2)c1 : 157 to 159 °C

Measured melting point, COc1cc(N)c(Cl)cc1C(=O)NCCN(C)C1CC1 : 164 to 165 °C

* * *

Measured melting point, listed per entry.

Known melting point results, listed for orientation:
Measured melting point, C#CCC1CC2C(CCC3(C)C(=O)CCC23)C2CCC(=O)C=C12 (stereo unspecified) : 186 to 188 °C

Measured melting point, CC(C)N(CCC(CCN(C(C)C)C(C)C)(C(N)=O)c1ccc(-c2ccccc2)cc1)C(C)C : 110 to 111 °C

Measured melting point, CC(=O)NCc1cc(C(C)(C)C)c(O)c(C(C)(C)C)c1 : 80 to 84 °C

Next:
Measured melting point, CCCCn1c(=S)[nH]c2sccc2c1=O : 200 to 203 °C

Measured melting point, Cc1c(C)c2c(c(C)c1O)CCC(C)(COc1ccc([N+](=O)[O-])cc1)O2 (stereo unspecified) : 114 to 116 °C

Measured melting point, O=C1Nc2cccc(Cl)c2C(=O)N2CCC[C@@H]12 : 264 to 266 °C

Measured melting point, CC(C)c1ccc(Oc2ccc(CCNc3ncnc4nccnc34)cc2)cc1 : 105 to 106 °C

Measured melting point, CC(=O)OC1COC(SCCCCCCOC2CCC3(C)C(=CCC4C3CCC3(C)C(C(C)CCCC(C)C)CCC43)C2)C(OC(C)=O)C1OC(C)=O (stereo unspecified) : 106 to 108 °C

Measured melting point, COC(=O)CCC#Cc1cc(Cl)ccc1NS(=O)(=O)c1ccc(C(C)=O)cc1 : 88 °C

Measured melting point, CCOC(=O)c1cn(CCCl)c2nc(N3CCN(C(=O)OCC)CC3)c(F)cc2c1=O : 143 to 144 °C

Measured melting point, CCC(CC)c1ccc(C(=O)OC)c2nc(Oc3c(C)cc(Cl)cc3Cl)n(C)c12 : 177 to 178 °C
